The values you see were collected from patent US20220259288A1.

- measurement_target: T1, HLA-DRB4*01:01 (human)
- T1 construct: MHC class II molecule; how it was prepared for the assay is not described
- assay_method_text: HLA class II competition binding assay
Known IC50 of a selection of binders
measurement_label: IC50 (nM)

1. LSQLQTYMIQFDQYI [ApoB100 peptide 3563.0012] :: 29
2. LIINWLQEALSSASL [ApoB100 peptide 3563.0015] :: 12
